- Tested on: zebrafish embryos
- TEST DESCRIPTION: AV block 2:1 and ventricular fibrillation after 2 h exposure
- Format: in vivo, Danio rerio
READOUT KIND: Lowest concentration provoking AV block (µM)

| COMPOUND | READOUT KIND | RESULT |
| --- | --- | --- |
| CNC(C)Cc1ccc2c(c1)OCO2 (stereo not drawn) [MDMA, 3,4-methylenedioxy-methamphetamine] | Lowest concentration provoking AV block | 500 |
| CCCC(C(=O)c1ccc2c(c1)OCO2)N1CCCC1 (stereo not drawn) [MDPV, 3,4-methylenedioxy-pyrovalerone] | Lowest concentration provoking AV block | 20 |
| CNC(C)C(=O)c1ccc(C)cc1 (stereo not drawn) [Mephedrone, mephedrone] | Lowest concentration provoking AV block | 500 |
